test: qHTS for Inhibitors of human tyrosyl-DNA phosphodiesterase 1 (TDP1): qHTS in cells in absence of CPT; conditions: DT40 Tdp1-/- hTDP1 cells, no CPT, ATP luminescence, 48 h; note: nearly all actives have a fitted effect of over 55% in size
Out of some 420,000 compounds screened, about 64,000 (15%) were called active. Not shown: some 27% with an inconclusive outcome. Calls come from the whole dose curve; as a rule, active = well fitted inhibition curve with a large enough effect; inconclusive = small, poorly fitted or top-dose-only effect; inactive = flat fitted curve, though single readings scatter. The list is a sample of the results.
Outcomes: 1.0 (active), 0.0 (inactive)

[[record]]
compound = "NC1=C([N+](=O)[O-])C(c2ccccc2)C2=C(CCCC2=O)O1 (stereo unspecified)"
qualitative_label = 0.0

[[record]]
compound = "Cn1c(SCC(=O)c2ccc(F)cc2)nnc1-c1ccccn1"
qualitative_label = 0.0

[[record]]
compound = "CN1/C(=C\\C=C2\\N=C(c3ccc(F)cc3)OC2=O)C(C)(C)c2ccccc21"
qualitative_label = 1.0

[[record]]
compound = "NC(=O)c1cc(S(=O)(=O)NCCCc2ccco2)cs1"
qualitative_label = 1.0

[[record]]
compound = "CCC1CCCCN1C(=S)NC(=O)c1ccco1 (stereo unspecified)"
qualitative_label = 0.0

[[record]]
compound = "Cc1ccc(NC(=O)/C(=C\\c2ccccc2)NC(=O)c2ccco2)cc1"
qualitative_label = 0.0

[[record]]
compound = "Cc1cccc(Cn2c(=O)n(CCC(=O)NCCc3ccc(Cl)cc3)c(=O)c3sccc32)c1"
qualitative_label = 0.0

[[record]]
compound = "Cc1oc2c(c1C(=O)Nc1ccc(F)c(F)c1)C1=NCCN1C=N2"
qualitative_label = 0.0

[[record]]
compound = "O=C(CN1CCOCC1)N/N=C/c1ccc(-c2ccc(Br)cc2)o1"
qualitative_label = 0.0

[[record]]
compound = "O=C(O)c1ccc(S(=O)(=O)c2ccccc2)s1"
qualitative_label = 0.0

[[record]]
compound = "O=c1ccn(Cc2ccccc2Cl)cc1"
qualitative_label = 0.0

